Molecular target: AEA-DA lipid probe targets in Neuro2a cells (Mus musculus, UniProt P97311)
Sequence (P97311 whole entry): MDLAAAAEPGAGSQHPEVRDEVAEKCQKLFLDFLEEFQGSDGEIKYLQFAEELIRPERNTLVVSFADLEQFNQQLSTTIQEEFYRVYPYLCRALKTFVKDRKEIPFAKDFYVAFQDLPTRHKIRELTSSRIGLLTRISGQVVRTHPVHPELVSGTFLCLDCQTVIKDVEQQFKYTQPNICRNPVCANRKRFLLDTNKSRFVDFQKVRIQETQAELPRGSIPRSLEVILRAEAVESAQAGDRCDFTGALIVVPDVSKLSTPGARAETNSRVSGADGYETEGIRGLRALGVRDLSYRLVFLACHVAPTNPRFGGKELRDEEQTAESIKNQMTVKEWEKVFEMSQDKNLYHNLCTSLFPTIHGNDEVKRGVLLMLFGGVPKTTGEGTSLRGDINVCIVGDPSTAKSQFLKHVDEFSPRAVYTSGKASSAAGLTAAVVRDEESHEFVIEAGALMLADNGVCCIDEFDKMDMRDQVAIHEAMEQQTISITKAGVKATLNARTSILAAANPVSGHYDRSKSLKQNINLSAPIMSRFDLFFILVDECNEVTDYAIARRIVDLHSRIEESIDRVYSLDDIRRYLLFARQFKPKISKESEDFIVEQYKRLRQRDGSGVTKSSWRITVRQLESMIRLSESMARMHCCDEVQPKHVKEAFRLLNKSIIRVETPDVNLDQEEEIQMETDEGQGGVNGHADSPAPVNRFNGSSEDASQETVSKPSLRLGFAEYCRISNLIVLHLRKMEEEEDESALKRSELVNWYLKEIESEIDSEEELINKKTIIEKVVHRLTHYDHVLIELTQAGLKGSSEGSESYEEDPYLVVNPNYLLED
Settings: competitor 25 μM
We begin with a simple list: items and their reported SILAC ratio Mcm6.

# compound, SILAC ratio Mcm6
rows = [
    ("CN1CCN(C(=O)c2c(-c3ccccc3)c3cc([N+](=O)[O-])ccc3n2C)CC1", 2.0),
    ("CN1CCN(C(=O)c2[nH]c3ccc([N+](=O)[O-])cc3c2-c2ccccc2)CC1", 1.4),
    ("C=CCN(C)CCCCCCOc1ccc(C(=O)c2ccc(Br)cc2)c(F)c1 [Ro 48-8071, reference compound]", 0.8),
    ("O=C(/C=C/c1cccnc1)NCCCCC1CCN(C(=O)c2ccccc2)CC1 [FK-866, reference compound]", 1.1),
]

###

Target: AEA-DA lipid probe targets in Neuro2a cells (Mus musculus, UniProt Q61009)
Sequence (Q61009 1-509): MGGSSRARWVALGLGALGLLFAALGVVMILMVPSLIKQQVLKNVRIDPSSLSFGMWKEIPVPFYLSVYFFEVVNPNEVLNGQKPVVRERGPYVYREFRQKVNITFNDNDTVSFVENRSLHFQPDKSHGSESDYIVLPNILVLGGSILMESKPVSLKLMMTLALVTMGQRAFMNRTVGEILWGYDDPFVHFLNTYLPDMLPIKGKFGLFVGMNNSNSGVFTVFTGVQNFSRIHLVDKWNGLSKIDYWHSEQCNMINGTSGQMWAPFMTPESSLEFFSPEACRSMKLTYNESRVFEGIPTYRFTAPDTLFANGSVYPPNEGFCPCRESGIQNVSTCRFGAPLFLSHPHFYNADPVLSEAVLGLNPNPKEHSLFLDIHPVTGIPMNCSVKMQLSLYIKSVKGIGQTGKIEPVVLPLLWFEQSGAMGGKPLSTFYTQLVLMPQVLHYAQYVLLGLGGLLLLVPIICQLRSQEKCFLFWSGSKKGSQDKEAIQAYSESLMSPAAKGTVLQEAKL
Details: competitor 25 μM
The following molecules are shown together with reported SILAC ratio, Scarb1 values.
measure: SILAC ratio, Scarb1

# molecule, measured_result
data = [
    ("CN1CCN(C(=O)c2c(-c3ccccc3)c3cc([N+](=O)[O-])ccc3n2C)CC1 [KML110]", 2.8),
    ("C=CCN(C)CCCCCCOc1ccc(C(=O)c2ccc(Br)cc2)c(F)c1 [Ro 48-8071, reference compound]", 2.9),
    ("O=C(/C=C/c1cccnc1)NCCCCC1CCN(C(=O)c2ccccc2)CC1 [FK-866, reference compound]", 2.3),
    ("CN1CCN(C(=O)c2[nH]c3ccc([N+](=O)[O-])cc3c2-c2ccccc2)CC1 [MJN228]", 2.0),
]

###

Biological target: AEA-DA lipid probe targets in Neuro2a cells (Mus musculus, UniProt Q62465)
Sequence (Q62465 whole entry): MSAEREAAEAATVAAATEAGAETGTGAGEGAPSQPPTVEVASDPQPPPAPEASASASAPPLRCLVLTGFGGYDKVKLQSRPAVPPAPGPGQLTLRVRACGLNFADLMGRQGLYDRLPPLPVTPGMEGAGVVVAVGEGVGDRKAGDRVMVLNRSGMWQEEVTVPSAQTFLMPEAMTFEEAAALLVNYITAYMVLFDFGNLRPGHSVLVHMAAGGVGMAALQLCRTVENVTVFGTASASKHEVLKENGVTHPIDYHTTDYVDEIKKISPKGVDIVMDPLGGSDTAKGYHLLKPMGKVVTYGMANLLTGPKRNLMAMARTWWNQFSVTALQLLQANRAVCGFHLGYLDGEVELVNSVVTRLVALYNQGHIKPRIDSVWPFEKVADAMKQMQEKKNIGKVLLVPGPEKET
Settings: competitor 25 μM

# compound, SILAC ratio Vat1
data = [
    ("CN1CCN(C(=O)c2[nH]c3ccc([N+](=O)[O-])cc3c2-c2ccccc2)CC1 [MJN228]", 1.3),
    ("CN1CCN(C(=O)c2c(-c3ccccc3)c3cc([N+](=O)[O-])ccc3n2C)CC1 [KML110]", 1.4),
    ("C=CCN(C)CCCCCCOc1ccc(C(=O)c2ccc(Br)cc2)c(F)c1 [Ro 48-8071, reference compound]", 1.2),
    ("O=C(/C=C/c1cccnc1)NCCCCC1CCN(C(=O)c2ccccc2)CC1 [FK-866, reference compound]", 1.9),
]

###

Measured SILAC ratio H2-L of individual entries
Biological target: AEA-DA lipid probe targets in Neuro2a cells (Mus musculus, UniProt P01897)
Sequence (P01897 25-362): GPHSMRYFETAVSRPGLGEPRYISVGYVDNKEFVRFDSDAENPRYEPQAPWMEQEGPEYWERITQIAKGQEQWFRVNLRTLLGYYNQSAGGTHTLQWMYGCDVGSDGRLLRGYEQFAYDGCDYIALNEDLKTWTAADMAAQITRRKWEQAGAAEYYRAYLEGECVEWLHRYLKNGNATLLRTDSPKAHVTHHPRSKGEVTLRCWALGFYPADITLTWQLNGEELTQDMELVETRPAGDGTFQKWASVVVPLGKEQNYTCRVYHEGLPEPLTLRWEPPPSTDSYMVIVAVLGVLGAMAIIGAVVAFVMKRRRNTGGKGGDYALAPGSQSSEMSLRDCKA
Conditions: competitor 25 μM

# compound, SILAC ratio H2-L
records = [
    ("C=CCN(C)CCCCCCOc1ccc(C(=O)c2ccc(Br)cc2)c(F)c1 [Ro 48-8071, reference compound]", 0.8),
    ("CN1CCN(C(=O)c2c(-c3ccccc3)c3cc([N+](=O)[O-])ccc3n2C)CC1", 1.7),
    ("O=C(/C=C/c1cccnc1)NCCCCC1CCN(C(=O)c2ccccc2)CC1 [FK-866, reference compound]", 1.0),
    ("CN1CCN(C(=O)c2[nH]c3ccc([N+](=O)[O-])cc3c2-c2ccccc2)CC1", 1.1),
]

###

Target: AEA-DA lipid probe targets in Neuro2a cells (Mus musculus)
Conditions: competitor 25 μM
# SILAC ratio, Hadha listing for each entry below

# compound, SILAC ratio, Hadha
measured = [
    ("CN1CCN(C(=O)c2c(-c3ccccc3)c3cc([N+](=O)[O-])ccc3n2C)CC1", 2.0),
    ("CN1CCN(C(=O)c2[nH]c3ccc([N+](=O)[O-])cc3c2-c2ccccc2)CC1", 1.7),
    ("C=CCN(C)CCCCCCOc1ccc(C(=O)c2ccc(Br)cc2)c(F)c1 [Ro 48-8071, reference compound]", 1.0),
    ("O=C(/C=C/c1cccnc1)NCCCCC1CCN(C(=O)c2ccccc2)CC1 [FK-866, reference compound]", 6.2),
]

###

Molecular target: AEA-DA lipid probe targets in Neuro2a cells (Mus musculus, UniProt Q9Z0R9)
Sequence (Q9Z0R9 1-444): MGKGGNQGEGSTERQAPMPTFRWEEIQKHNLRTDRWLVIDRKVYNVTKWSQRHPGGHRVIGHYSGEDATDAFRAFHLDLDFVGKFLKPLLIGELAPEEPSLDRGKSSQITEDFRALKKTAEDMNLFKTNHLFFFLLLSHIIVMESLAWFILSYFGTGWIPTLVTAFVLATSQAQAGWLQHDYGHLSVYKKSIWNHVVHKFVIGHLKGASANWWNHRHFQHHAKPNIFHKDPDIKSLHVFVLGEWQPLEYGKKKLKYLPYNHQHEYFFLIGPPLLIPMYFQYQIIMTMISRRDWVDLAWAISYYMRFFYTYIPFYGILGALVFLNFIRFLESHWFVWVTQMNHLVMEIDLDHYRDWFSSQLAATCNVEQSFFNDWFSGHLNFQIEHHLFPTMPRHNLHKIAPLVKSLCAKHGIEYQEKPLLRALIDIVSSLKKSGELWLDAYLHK
Conditions: competitor 25 μM
Measured SILAC ratio, Fads2 by item
measure: SILAC ratio, Fads2

# molecule, system_name, measure, measured_result
data = [
    ("C=CCN(C)CCCCCCOc1ccc(C(=O)c2ccc(Br)cc2)c(F)c1 [Ro 48-8071, reference compound]", "AEA-DA lipid probe targets in Neuro2a cells (Mus musculus, UniProt Q9Z0R9)", "SILAC ratio, Fads2", 1.2),
    ("O=C(/C=C/c1cccnc1)NCCCCC1CCN(C(=O)c2ccccc2)CC1 [FK-866, reference compound]", "AEA-DA lipid probe targets in Neuro2a cells (Mus musculus, UniProt Q9Z0R9)", "SILAC ratio, Fads2", 1.2),
    ("CN1CCN(C(=O)c2[nH]c3ccc([N+](=O)[O-])cc3c2-c2ccccc2)CC1 [MJN228]", "AEA-DA lipid probe targets in Neuro2a cells (Mus musculus, UniProt Q9Z0R9)", "SILAC ratio, Fads2", 1.8),
    ("CN1CCN(C(=O)c2c(-c3ccccc3)c3cc([N+](=O)[O-])ccc3n2C)CC1 [KML110]", "AEA-DA lipid probe targets in Neuro2a cells (Mus musculus, UniProt Q9Z0R9)", "SILAC ratio, Fads2", 1.4),
]

###

Molecular target: AEA-DA lipid probe targets in Neuro2a cells (Mus musculus, UniProt P47740)
Sequence (P47740 whole entry): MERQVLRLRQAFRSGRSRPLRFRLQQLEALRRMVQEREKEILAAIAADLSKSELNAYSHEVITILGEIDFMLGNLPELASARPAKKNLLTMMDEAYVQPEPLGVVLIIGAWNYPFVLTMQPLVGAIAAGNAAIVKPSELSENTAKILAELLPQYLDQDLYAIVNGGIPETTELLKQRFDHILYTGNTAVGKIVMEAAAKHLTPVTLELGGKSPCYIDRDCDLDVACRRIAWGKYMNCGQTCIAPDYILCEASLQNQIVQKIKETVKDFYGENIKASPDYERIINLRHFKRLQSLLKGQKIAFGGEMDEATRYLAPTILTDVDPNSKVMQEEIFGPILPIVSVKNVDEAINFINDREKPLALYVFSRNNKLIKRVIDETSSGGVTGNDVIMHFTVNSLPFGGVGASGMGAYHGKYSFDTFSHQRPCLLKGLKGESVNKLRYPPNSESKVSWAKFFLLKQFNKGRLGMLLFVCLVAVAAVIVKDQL
Conditions: competitor 25 μM
Recorded SILAC ratio, Aldh3a2 values for a group of compounds are listed next.
measure: SILAC ratio, Aldh3a2

# compound, measure, measured_result
rows = [
    ("CN1CCN(C(=O)c2[nH]c3ccc([N+](=O)[O-])cc3c2-c2ccccc2)CC1 [MJN228]", "SILAC ratio, Aldh3a2", 1.8),
    ("CN1CCN(C(=O)c2c(-c3ccccc3)c3cc([N+](=O)[O-])ccc3n2C)CC1 [KML110]", "SILAC ratio, Aldh3a2", 1.4),
    ("C=CCN(C)CCCCCCOc1ccc(C(=O)c2ccc(Br)cc2)c(F)c1 [Ro 48-8071, reference compound]", "SILAC ratio, Aldh3a2", 1.3),
    ("O=C(/C=C/c1cccnc1)NCCCCC1CCN(C(=O)c2ccccc2)CC1 [FK-866, reference compound]", "SILAC ratio, Aldh3a2", 1.6),
]

###

Target: AEA-DA lipid probe targets in Neuro2a cells (Mus musculus, UniProt Q3KNM2)
Sequence (Q3KNM2 whole entry): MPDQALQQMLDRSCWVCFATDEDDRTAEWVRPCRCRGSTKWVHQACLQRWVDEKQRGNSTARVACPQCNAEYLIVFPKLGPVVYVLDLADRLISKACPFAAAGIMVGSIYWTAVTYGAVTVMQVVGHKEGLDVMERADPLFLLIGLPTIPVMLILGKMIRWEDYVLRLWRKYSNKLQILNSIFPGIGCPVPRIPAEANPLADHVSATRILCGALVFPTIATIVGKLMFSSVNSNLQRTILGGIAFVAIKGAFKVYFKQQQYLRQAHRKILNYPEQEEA
Settings: competitor 25 μM
measure: SILAC ratio, March5

# compound, measured_result
rows = [
    ("O=C(/C=C/c1cccnc1)NCCCCC1CCN(C(=O)c2ccccc2)CC1 [FK-866, reference compound]", 1.3),
    ("CN1CCN(C(=O)c2c(-c3ccccc3)c3cc([N+](=O)[O-])ccc3n2C)CC1", 1.5),
    ("CN1CCN(C(=O)c2[nH]c3ccc([N+](=O)[O-])cc3c2-c2ccccc2)CC1", 1.1),
    ("C=CCN(C)CCCCCCOc1ccc(C(=O)c2ccc(Br)cc2)c(F)c1 [Ro 48-8071, reference compound]", 1.1),
]
